- protocol summary: in vitro
- run conditions: human, hela cells, % viability
Hi! Just check whether viability at 28.5 h, 10 µM is below 90%. Below gives 1, equal or above gives -1.

{"compound": "Cc1ccc(S(=O)(=O)NCC(C)O)cc1-c1nnc2c3ccccc3c(C)nn12 (stereo not drawn)", "class label": -1}
{"compound": "O=C(NCCCN1CCOCC1)c1cnn2c(-c3ccccc3)cc(-c3ccccc3)nc12", "class label": 1}
{"compound": "CCc1nc2ccc(C(=O)N3CCCC(C(N)=O)C3)cn2c1N(CC)CCN(C)C (stereo not drawn)", "class label": -1}
{"compound": "Cc1ccc2c(c1)C(=O)CC1(CCN(C(=O)C3CCCC3)CC1)O2", "class label": 1}
{"compound": "O=c1ccccn1COCc1ccccc1", "class label": -1}

The measurements presented in this section are drawn from paper PMC12040169.
